# protocol-details: amyloid nucleation score (Sup35N fusion, yeast selection) (log enrichment); library NNK2; higher = more nucleation; inactive = no reads after selection;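 also: zero at mode of non-aggregating sequences after 7 days selection at 30°C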
Decision: amyloid nucleation score >= 0.09 yields TRUE, all other cases yield FALSE.

INPUT: Could you tell me if the measured amyloid nucleation score of EMSFSLTYSRSRHFRSGGTA reaches 0.09 or more?
OUTPUT: TRUE

INPUT: What would you report for SGTMSLLKMLLEYKLLT ?
OUTPUT: FALSE

INPUT: Input WFLGMGKFHRRAWAARLFMV
OUTPUT: TRUE

INPUT: Please do the same for SGSRYAIVSYG as well.
OUTPUT: FALSE

INPUT: Also check YVSWRTNGLMSTCDFLTRQT
OUTPUT: TRUE

###

# protocol-details: amyloid nucleation score (Sup35N fusion, yeast selection) (log enrichment); library NNK3; higher = more nucleation; inactive = no reads after selection
property-label: amyloid nucleation score

Worked cases, amyloid nucleation score given:
ESRMDRCCPSFGMCSLRYQK inactive
TGARMVLCIFGIYSMYTLHN 1.99
SSEPMHLEASIPVFAKE inactive
ASAYSTYKVERLGFDGVQSS inactive
EFMILDLCMG inactive
GACTHGRSSCDKIYLRYSYG inactive
GSKYMQRHLNTI inactive
DFSFSIRVGSSALGVSKNTE 1.31

INPUT: # lookup: amyloid nucleation score of RYCNASY
OUTPUT: inactive

INPUT: Subsequent entry: FDVELALWC
OUTPUT: inactive

INPUT: Now consider INTGQMQSAYETNLVMRKLA .
OUTPUT: inactive

INPUT: Here is the next substance: WLFRRVGMVTHAWMYWFKSR
OUTPUT: inactive

INPUT: Another substance to check: RDTYQSSCDWQW
OUTPUT: 0.077

INPUT: Request: LVFHYRARKGLSIIG
OUTPUT: inactive

INPUT: Follow-up entry: RGRIVLNQRLNCDDEDGISE
OUTPUT: inactive

INPUT: What do we get for RHAYQRWLIFC ?
OUTPUT: inactive

INPUT: # iterate: LGRYWHVIKLDLVPHMKWCE
OUTPUT: inactive

INPUT: Likewise for CQSSVLLCSYCGY ?
OUTPUT: 2.65

INPUT: Here is the next substance: SFYRMRVIHSLDYAKVKSTL
OUTPUT: 0.772

INPUT: Same again, this time with PLAFWTCCYCLTWNLRLSWQ
OUTPUT: 1.6

###

# protocol-details: amyloid nucleation score (Sup35N fusion, yeast selection) (log enrichment); library NNK1; higher = more nucleation; inactive = no reads after selection
Classification field: criterion met = amyloid nucleation score at or over 0.5; criterion not met = amyloid nucleation score under 0.5.

Worked examples, 3 substances total:
KCLTFHVSNVFITANPLCLL criterion met
VIYLGRIVVEGSNLTSKSSA criterion met
CHVQMSFNGLRYNFHTIFFI criterion met

INPUT: Evaluate YYWSYLALYSG : amyloid nucleation score at minimum 0.5?
OUTPUT: criterion not met

INPUT: What do you have for MYAFASSKYEHIS ?
OUTPUT: criterion met

INPUT: Now give it for GLTPMRHN too.
OUTPUT: criterion not met

INPUT: Now consider GRPLCSRPMILHMHNITLRM .
OUTPUT: criterion met

INPUT: Next up: SPFSGVL
OUTPUT: criterion met

###

This section presents sequences with their documented amyloid nucleation score values.
# protocol-details: amyloid nucleation score (Sup35N fusion, yeast selection) (log enrichment); library NNK2; higher = more nucleation; inactive = no reads after selection
Reply briefly: the number, and no unit.

INPUT: # lookup: amyloid nucleation score of LFRVMILC
OUTPUT: -0.239

INPUT: Quick one: QTCLHMSIGWVSP
OUTPUT: 4.38

INPUT: Can you handle SYWKTSKCMTKLLGCNM next?
OUTPUT: -0.243

INPUT: Now this one: FTVRQTKAAGECSSKQWGTL
OUTPUT: 3.18

INPUT: Next sequence: YSSNMASALSYICDPMIFNF
OUTPUT: -0.703

INPUT: What about LWRSVAKIVSPN ?
OUTPUT: -1.74

INPUT: Further, for AALPFHEVPTGLMITRAFWD ?
OUTPUT: 3.72

INPUT: Now the sequence AWETFELVLY
OUTPUT: -0.145

INPUT: Here is the next sequence: LIGDSLSVVRNRNFPPARGK
OUTPUT: -0.237

INPUT: Input FALNLFCEDKCLYCSLVSS
OUTPUT: 2.92

INPUT: Field entry: SICRPIMSESWIASPCVLVG
OUTPUT: -0.012

INPUT: Repeat with FYGQMRSKVLCLFH
OUTPUT: -1.02

INPUT: Also need DYSRLSLGICEVDDCTLRMV , thanks.
OUTPUT: -0.761

INPUT: And the next one, LHTLVALINACRNASGSVHD ?
OUTPUT: 0.167

###

# protocol-details: amyloid nucleation score (Sup35N fusion, yeast selection) (log enrichment); library NNK3; higher = more nucleation; inactive = no reads after selection
property-label: amyloid nucleation score

YYRSCWLSLCWCYHYCYGVD 0.346
RRIASEWDLTTVPLLLV inactive
SSVDSSFANCCVISKRNHML inactive
CIGWRIM inactive
IYSRVSRLIH inactive

INPUT: # lookup: amyloid nucleation score of NLGGAPVL
OUTPUT: inactive

INPUT: Now give it for NESISPFVTKRHPEFMRFNC too.
OUTPUT: inactive

INPUT: Record: FWDTKFEFFQLHRVWIPLLV
OUTPUT: inactive

INPUT: Also need PSPLDSRLEHYRMDSTCRVV , thanks.
OUTPUT: inactive

###

# protocol-details: amyloid nucleation score (Sup35N fusion, yeast selection) (log enrichment); library NNK2; higher = more nucleation; inactive = no reads after selection
Where amyloid nucleation score equals or exceeds 1, the correct label is Criterion met; where it does not, the label is Criterion not met.

Example entries begin here.
VNGSIARYGVCFVARCHVIS Criterion not met
KVSDRVGLEPKVCAQRRRNL Criterion not met
CCRGLIRMLDCCNYRRK Criterion met

INPUT: Would you say VSACSDLNGW shows amyloid nucleation score at minimum 1?
OUTPUT: Criterion not met

INPUT: Follow-up entry: LYYAVQFLKIRTLLPECSLQ
OUTPUT: Criterion not met

INPUT: Also NPELRRGWFTWYPVGPGMKQ , if possible.
OUTPUT: Criterion not met

###

# protocol-details: amyloid nucleation score (Sup35N fusion, yeast selection) (log enrichment); library NNK2; higher = more nucleation; inactive = no reads after selection
property-label: amyloid nucleation score

NISSLSNNARVIVYFCVRYQ inactive
KCWLLGHWEDFCTLSKMERN inactive
MWESQGHSLAV inactive

###

# protocol-details: amyloid nucleation score (Sup35N fusion, yeast selection) (log enrichment); library NNK2; higher = more nucleation; inactive = no reads after selection
Classify by measured amyloid nucleation score: yes if it is equal to or exceeds -0.07, no if it is smaller.

// below: answered substances
RLAFSKE yes
SPGRLFATEFVVVYVKYHSP no
VSVIGKFSFHPKRMRG no
PLCFLVMGHGTRCVCRWNTG no
GMLFRWCG yes
SEFVGSYWGFDLMLGLD no

INPUT: Please indicate if the recorded amyloid nucleation score for QSRSRIGFGQCGRFGTAWWV meets or exceeds -0.07.
OUTPUT: yes

INPUT: Similarly, AYIARYNPTSLNRVEYPPDD ?
OUTPUT: yes

INPUT: Moving on to HPMLLMKNARG
OUTPUT: no

INPUT: Same question, NEDTAGTRRLHPRYGVADWS this time
OUTPUT: yes

INPUT: Can you handle TEVGCYFYTWRICIYNDTRA next?
OUTPUT: yes

INPUT: Can you check SGDGVLVSFSKDSGFQSFGS next?
OUTPUT: yes

INPUT: Queued: YIFSILRDKSVPFDSQVSKN
OUTPUT: no

###

// amyloid nucleation score lookup, one value per entry
# protocol-details: amyloid nucleation score (Sup35N fusion, yeast selection) (log enrichment); library NNK1; higher = more nucleation; inactive = no reads after selection
Answer with a bare number; do not write a unit.

RGFWLERCSWTF -0.003
KGKAAT -0.534
SITMGQS -0.546
YYDYGEYIIKGVLPWIRGFY 0.513
RTFTGRDGCVKDVCTPHFEM 0.632

Would you kindly look at the next entry?
INPUT: Which amyloid nucleation score is listed for RVNYIHD ?
OUTPUT: -0.057

###

# protocol-details: amyloid nucleation score (Sup35N fusion, yeast selection) (log enrichment); library NNK2; higher = more nucleation; inactive = no reads after selection
property-label: amyloid nucleation score

Here are 8 substances together with their reported answers.
PSNNIFSLLFLVLKHFIDMR inactive
RACFHHIIGDCCYASFN 8.76
IVSVYATAIGGVRFRECCIG -0.09
FRVGLLVGISMVDFTLGVNA 0.416
VPPPVGVIYGIQ 0.637
AYHAMVCYINLFSDVYLHGY 4.98
LGNTRSIWGE 0.578
INVFGGHLMSYMKSISRVVC -1.13

# next substance below
INPUT: Name the recorded amyloid nucleation score for YSYVGFIF .
OUTPUT: 1.49
